Target: T1, MBP-RAMP2 ECD [L106R]-(GS)5-CLR ECD-H6 fusion protein (human, UniProt O60895 43-143; Q16602 29-144)
T1 chain: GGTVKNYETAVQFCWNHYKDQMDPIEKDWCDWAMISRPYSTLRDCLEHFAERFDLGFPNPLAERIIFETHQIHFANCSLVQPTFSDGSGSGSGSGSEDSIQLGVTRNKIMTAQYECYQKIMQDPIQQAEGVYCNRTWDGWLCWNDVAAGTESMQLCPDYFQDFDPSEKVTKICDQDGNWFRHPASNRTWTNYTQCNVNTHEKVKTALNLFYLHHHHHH
Assay: FP competition, FITC-AM W/W probe, RAMP2-CLR ECD
Where no end group is shown, it is not given here.
Endpoint: pKi
Numbers only, as −log10 of the molar value.

Below, each entry is followed by its recorded pKi result.
[
  {
    "Binder": "DKDNVAPRWKISPWGY-NH2 (also called S45W/Q50W double mutant) [AM(37-52)NH2 [S45W, Q50W]]",
    "pKi": 7.09
  },
  {
    "Binder": "DKDNVAPRTWISPWGY-NH2 [AM(37-52)NH2[S45T, K46W, Q50W]]",
    "pKi": 4.90
  },
  {
    "Binder": "DKKNVAPRSKISPQGY-NH2 [AM(37-52)NH2 [D39K]]",
    "pKi": 5.21
  }
]

Now look at this one.
Recorded result, DKDNVAPRWLIGPWGF-NH2 [AM(37-52)NH2 [S45W, K46L, S48G, Q50W, Y52F]] , pKi: 5.90
